- study.system: T1, BCMA (Homo sapiens (Human), UniProt Q02223 1-54, limits assumed)
- T1 sequence: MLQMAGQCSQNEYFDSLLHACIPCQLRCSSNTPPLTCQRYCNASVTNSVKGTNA
- assay.overview: ELISA, format not described
- Design: unit not given here
Decide using ELISA_avg alone. Strictly below 8: TRUE. Equal to or above 8: FALSE.

{"binder": "D-domain SEQ ID NO: 88 (designed binder) MGSWYEFSMRLSAIWERLHALGGSEAELAAFEKEIAAFESELQAYKGKGNPEVEELRYQAALIRFYLQAYRHN", "classification": "TRUE"}
{"binder": "D-domain SEQ ID NO: 63 (designed binder) MGSWSEFMNRLDAITYRLVALGGSEAELAAFEKEIAAFESELQAYKGKGNPEVELLRHYAAQIRDSLQAYRHN", "classification": "FALSE"}
{"binder": "D-domain SEQ ID NO: 125 (designed binder) MGSWYEFHYRLKAINDRLYALGGSEAELAAFEKEIAAFESELQAYKGKGNPEVEYLRYSAAMIRHKLQAYRHN", "classification": "TRUE"}
{"binder": "D-domain SEQ ID NO: 148 (designed binder) MGSWMEFQGRLPAILARLRALGGSEAELAAFEKEIAAFESELQAYKGKGNPEVEHLRDKAAYIRWMLQAYRHN", "classification": "FALSE"}
{"binder": "D-domain SEQ ID NO: 195 (designed binder) MGSWVEFWDRLGAIRDRLDALGGSEAELAAFEKEIAAFESELQAYKGKGNPEVEELRNTAAYIRTFLQAYRHN", "classification": "FALSE"}
{"binder": "D-domain SEQ ID NO: 124 (designed binder) MGSWNEFHHRLWAIFDRLGALGGSEAELAAFEKEIAAFESELQAYKGKGNPEVEVLRKMAAGIRGGLQAYRHN", "classification": "TRUE"}
{"binder": "D-domain SEQ ID NO: 262 (designed binder) MGSWAGFKYRLAVIKYYLEALGGSEAELAHFEQWIAHFEGMLQDYKGKGNPEVEALRKEAAAIRDELQAYRHN", "classification": "FALSE"}
{"binder": "D-domain SEQ ID NO: 142 (designed binder) MGSWHEFRNRLGAIDSRLWALGGSEAELAAFEKEIAAFESELQAYKGKGNPEVETLRARAAMIRSVLQAYRHN", "classification": "TRUE"}
{"binder": "D-domain SEQ ID NO: 161 (designed binder) MGSWYEFEHRLKAIVSRLGALGGSEAELAAFEKEIAAFESELQAYKGKGNPEVEHLRDKAAYIRYMLQAYRHN", "classification": "TRUE"}
{"binder": "D-domain SEQ ID NO: 261 (designed binder) MGSWQQFKYRLAIIKYYLEALGGSEAELAGFETYIAKFEEVLQSYKGKGNPEVEALRKEAAAIRDELQAYRHN", "classification": "FALSE"}

The reported measurements were obtained from patent US20250026849A1.
